Experiment: NCI Yeast Anticancer Drug Screen. Data for the mlh1 rad18 strain (AID 175)
Details: S. cerevisiae mlh1 rad18 strain growth inhibition; at 50.0 µM (retest, dose inferred, filed as 5.0); active compounds read high
Protocol: Growth inhibition of yeast strains with defined genetic alterations is measured as a screen for potential anti-cancer activity. Selected strains with alterations in DNA damage repair or cell cycle control were exposed to compounds and growth inhibition was measured relative to vehicle treated controls. The strain used in this assay is mlh1 rad18
This is part of a sample that, as a whole, favours compounds with a hit. Of some 79,000 tested, about 15% had one in any assay.
endpoint.name: growth inhibition (%)
The response must be a number in % with no trailing unit.

The examples below pair each entry with its known result.
molecule	growth inhibition / %
Cc1ccc(N=Nc2ncccc2O)cc1C	95
COc1ccc2[nH]c3ccc4cc[n+](CCN5CCC(C6CCN(CC[n+]7ccc8ccc9[nH]c%10ccc(OC)cc%10c9c8c7)CC6)CC5)cc4c3c2c1	97
O=C1C(c2ccccc2)=[N+]([O-])c2cc([N+](=O)[O-])c(/C(Cl)=C/c3ccccc3)cc21	3

Ask | Which growth inhibition reading was recorded for the molecule O=C1CC(O)CC(=O)C1=C(O)CCCCCCCCCCc1ccccc1 (configuration not stated) ?
Reply | 62

Ask | Which growth inhibition reading was recorded for the molecule CC(=O)Nc1ccc(-c2ccccc2)cc1[N+](=O)[O-] ?
Reply | 2

Ask | Which growth inhibition reading was recorded for the molecule Ic1[nH]c(I)c(I)c1I ?
Reply | 95

Ask | Which growth inhibition reading was recorded for the molecule CCN(CC)CCO/N=C1\CC[C@H]2[C@@H]3CCc4cc(OC)ccc4[C@H]3CC[C@]12C ?
Reply | 99

Ask | Which growth inhibition reading was recorded for the molecule CCNc1ccccc1C ?
Reply | 97

Ask | Which growth inhibition reading was recorded for the molecule Cc1cc(Cl)c(O)c(-c2cc(-c3ccccc3O)c(C#N)c(N)n2)c1 ?
Reply | 87

Ask | Which growth inhibition reading was recorded for the molecule NNc1ccccc1[N+](=O)[O-] ?
Reply | 96

Ask | Which growth inhibition reading was recorded for the molecule COc1ccc2ccccc2c1Cc1c(OC)ccc2ccccc12 ?
Reply | 98

Ask | Which growth inhibition reading was recorded for the molecule O=[N+]([O-])c1ccc(Sc2ccc([N+](=O)[O-])o2)cc1 ?
Reply | 99

Ask | Which growth inhibition reading was recorded for the molecule CCOC(=O)C1=C(Nc2ccc(Cl)c(Cl)c2)OC/C1=N\NS(=O)(=O)c1ccc(C)cc1 ?
Reply | 27

Ask | Which growth inhibition reading was recorded for the molecule O=C1OC(c2ccc3c(c2)OCO3)Sc2ccccc21 (configuration not stated) ?
Reply | 27

Ask | Which growth inhibition reading was recorded for the molecule O=C(O)/C=C/c1ccc2c(c1)CC1(Cc3ccccc3C1)C2 ?
Reply | 88

Ask | Which growth inhibition reading was recorded for the molecule NCC(O)CSc1ccc(Cl)c(Cl)c1 (configuration not stated) ?
Reply | 7

Ask | Which growth inhibition reading was recorded for the molecule O=P1(O)c2ccccc2CS(=O)(=O)Cc2ccccc21 ?
Reply | 43
